# Test Method Notes: Oral bioavailability in jugular and femoral vein precannulated Sprague-Dawley rat plasma at 5 mg/kg by LC/MS/MS analysis
# Type: ADME, organism-based
Would you mind telling me the reported bioavailability of each entry?
Numbers only, in %.

Look over these answered cases.
Endpoint output: bioavailability of N#Cc1cccc(C(=O)N2CCC(c3ccc(C(=O)NC(=N)N)cc3C(F)(F)F)CC2)c1 . Value?
72

Endpoint output: bioavailability of Cc1cc(-n2cccc2)c(S(C)(=O)=O)cc1C(=O)NC(=N)N [ENIPORIDE] . Value?
65

Endpoint output: bioavailability of CS(=O)(=O)c1ccc(C(=O)N2CCC(c3ccc(C(=O)NC(=N)N)cc3C(F)(F)F)CC2)cc1 . Value?
15

Endpoint output: bioavailability of N=C(N)NC(=O)c1ccc(N2CCN(C(=O)c3ccc[nH]3)CC2)c(C(F)(F)F)c1 [SABIPORIDE] . Value?
42

Endpoint output: bioavailability of N=C(N)NC(=O)c1cnn(-c2cccc3ncccc23)c1C1CC1 [ZONIPORIDE] . Value?
5

Provide each entry's bioavailability from the list below.
1. CC(=O)N1CCC(c2ccc(C(=O)NC(=N)N)cc2C(F)(F)F)CC1
2. CC(=O)N1CCC(c2cc(C)c(C(=O)NC(=N)N)cc2S(C)(=O)=O)CC1
3. CC(C)c1ccc(C(=O)NC(=N)N)cc1S(C)(=O)=O [CARIPORIDE]
4. CCC(=O)N1CCC(c2cc(C)c(C(=O)NC(=N)N)cc2S(C)(=O)=O)CC1
5. CCC(=O)N1CCC(c2ccc(C(=O)NC(=N)N)cc2C(F)(F)F)CC1

[73, 4, 37, 1, 49]

---

# Tested Target: UniProtKB P33261
# Sequence (P33261 whole entry): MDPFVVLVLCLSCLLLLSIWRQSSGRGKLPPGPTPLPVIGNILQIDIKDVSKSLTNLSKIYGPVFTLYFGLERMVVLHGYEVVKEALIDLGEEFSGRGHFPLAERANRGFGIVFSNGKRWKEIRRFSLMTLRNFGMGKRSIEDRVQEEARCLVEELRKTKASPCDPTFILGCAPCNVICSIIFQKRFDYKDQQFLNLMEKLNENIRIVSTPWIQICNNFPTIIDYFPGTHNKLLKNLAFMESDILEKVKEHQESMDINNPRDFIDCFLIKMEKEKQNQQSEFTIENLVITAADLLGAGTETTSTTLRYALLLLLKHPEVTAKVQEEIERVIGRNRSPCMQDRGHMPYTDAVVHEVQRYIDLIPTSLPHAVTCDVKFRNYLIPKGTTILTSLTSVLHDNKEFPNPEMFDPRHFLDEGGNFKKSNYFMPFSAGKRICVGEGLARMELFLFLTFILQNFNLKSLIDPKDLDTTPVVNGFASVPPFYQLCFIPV
Lab note: cut-off is 8 µM. Strictly less in IC50 is label 1. Exactly 8 µM or more is label 0.

Solved entries (count: 2):
API: query returns whether the compound falls strictly under 8 µM in IC50. Query: N=C(N)NC(=O)c1ccc(C2CCN(C(=O)c3ccccc3)CC2)c(C(F)(F)F)c1
label 1

API: query returns whether the compound falls strictly under 8 µM in IC50. Query: N=C(N)NC(=O)c1ccc(C2CCN(C(=O)c3ccncc3)CC2)c(C(F)(F)F)c1
label 1

Continuing:
API: query returns whether the compound falls strictly under 8 µM in IC50. Query: Cn1ccnc1C(=O)N1CCC(c2ccc(C(=O)NC(=N)N)cc2C(F)(F)F)CC1
label 0

API: query returns whether the compound falls strictly under 8 µM in IC50. Query: N#Cc1ccc(C(=O)N2CCC(c3ccc(C(=O)NC(=N)N)cc3C(F)(F)F)CC2)cc1
label 0

API: query returns whether the compound falls strictly under 8 µM in IC50. Query: N=C(N)NC(=O)c1ccc(C2CCN(C(=O)c3cccnc3)CC2)c(C(F)(F)F)c1
label 0

API: query returns whether the compound falls strictly under 8 µM in IC50. Query: N=C(N)NC(=O)c1ccc(N2CCN(C(=O)c3ccc[nH]3)CC2)c(C(F)(F)F)c1 [SABIPORIDE]
label 0

API: query returns whether the compound falls strictly under 8 µM in IC50. Query: N=C(N)NC(=O)c1ccc(C2CCN(C(=O)c3ccc(O)nc3)CC2)c(C(F)(F)F)c1
label 0

API: query returns whether the compound falls strictly under 8 µM in IC50. Query: Cn1cncc1C(=O)N1CCC(c2ccc(C(=O)NC(=N)N)cc2C(F)(F)F)CC1
label 0

API: query returns whether the compound falls strictly under 8 µM in IC50. Query: CS(=O)(=O)c1ccc(C(=O)N2CCC(c3ccc(C(=O)NC(=N)N)cc3C(F)(F)F)CC2)cc1
label 0

API: query returns whether the compound falls strictly under 8 µM in IC50. Query: N=C(N)NC(=O)c1ccc(C2CCN(C(=O)c3ccccn3)CC2)c(C(F)(F)F)c1
label 0

---

Would you mind telling me the reported hepatic extraction ratio at 1 h, 1 µM of each entry?
# Test Method Notes: Metabolic stability in human liver microsomes at 1 uM up to 60 mins by LC/MS/MS analysis relative to hepatic blood flow
# Type: ADME, Microsome
# Condition Notes: read-out: Stability
One number for each entry.

Look over these answered cases.
Endpoint output: hepatic extraction ratio at 1 h, 1 µM of N=C(N)NC(=O)c1ccc(C2CCN(C(=O)c3ccccn3)CC2)c(C(F)(F)F)c1 . Value?
0.49

Endpoint output: hepatic extraction ratio at 1 h, 1 µM of N=C(N)NC(=O)c1ccc(C2CCN(C(=O)c3ccc(O)nc3)CC2)c(C(F)(F)F)c1 . Value?
0.18

Endpoint output: hepatic extraction ratio at 1 h, 1 µM of N#Cc1ccccc1C(=O)N1CCC(c2ccc(C(=O)NC(=N)N)cc2C(F)(F)F)CC1 . Value?
0.4

Endpoint output: hepatic extraction ratio at 1 h, 1 µM of N=C(N)NC(=O)c1ccc(C2CCN(C(=O)c3ccccc3)CC2)c(C(F)(F)F)c1 . Value?
0.67

Attention now turns to another entry.
Endpoint output: hepatic extraction ratio at 1 h, 1 µM of Cc1cc(C(=O)N2CCC(c3ccc(C(=O)NC(=N)N)cc3C(F)(F)F)CC2)nn1C . Value?
0.68

---

Would you mind telling me the reported hepatic extraction ratio at 1 h, 1 µM of each entry?
# Test Method Notes: Metabolic stability in rat liver microsomes at 1 uM up to 60 mins by LC/MS/MS analysis relative to hepatic blood flow
# Type: ADME, Microsome
# Condition Notes: read-out: Stability

Look over these answered cases.
Endpoint output: hepatic extraction ratio at 1 h, 1 µM of N=C(N)NC(=O)c1ccc(C2CCN(C(=O)c3ccc(O)cc3)CC2)c(C(F)(F)F)c1 . Value?
0.11

Endpoint output: hepatic extraction ratio at 1 h, 1 µM of N=C(N)NC(=O)c1ccc(C2CCN(C(=O)c3ccc(S(N)(=O)=O)cc3)CC2)c(C(F)(F)F)c1 . Value?
0.07

Endpoint output: hepatic extraction ratio at 1 h, 1 µM of COCC(=O)N1CCC(c2ccc(C(=O)NC(=N)N)cc2C(F)(F)F)CC1 . Value?
0.36

Endpoint output: hepatic extraction ratio at 1 h, 1 µM of CC(C)C(=O)N1CCC(c2ccc(C(=O)NC(=N)N)cc2C(F)(F)F)CC1 . Value?
0.39

Endpoint output: hepatic extraction ratio at 1 h, 1 µM of N#Cc1ccccc1C(=O)N1CCC(c2ccc(C(=O)NC(=N)N)cc2C(F)(F)F)CC1 . Value?
< 0.06

Provide each entry's hepatic extraction ratio at 1 h, 1 µM from the list below.
1. N=C(N)NC(=O)c1ccc(C2CCN(C(=O)c3ccc(O)nc3)CC2)c(C(F)(F)F)c1
2. N=C(N)NC(=O)c1ccc(C2CCN(C(=O)c3ccccn3)CC2)c(C(F)(F)F)c1
3. Cc1cc(C(=O)N2CCC(c3ccc(C(=O)NC(=N)N)cc3C(F)(F)F)CC2)nn1C
4. N=C(N)NC(=O)c1ccc(C2CCN(C(=O)c3ccncc3)CC2)c(C(F)(F)F)c1
5. N#Cc1cccc(C(=O)N2CCC(c3ccc(C(=O)NC(=N)N)cc3C(F)(F)F)CC2)c1
6. N=C(N)NC(=O)c1ccc(C2CCN(C(=O)c3ccc(F)cc3)CC2)c(C(F)(F)F)c1
7. N=C(N)NC(=O)c1ccc(C2CCN(C(=O)C3CC3)CC2)c(C(F)(F)F)c1
8. CS(=O)(=O)c1cccc(C(=O)N2CCC(c3ccc(C(=O)NC(=N)N)cc3C(F)(F)F)CC2)c1

1. 0.1
2. < 0.06
3. 0.78
4. 0.12
5. < 0.056
6. 0.3
7. < 0.056
8. 0.14

Provide each entry's hepatic extraction ratio at 1 h, 1 µM from the list below.
1. N=C(N)NC(=O)c1ccc(C2CCN(C(=O)c3ccccc3)CC2)c(C(F)(F)F)c1
2. N=C(N)NC(=O)c1ccc(C2CCN(C(=O)c3cccnc3)CC2)c(C(F)(F)F)c1
3. Cn1cncc1C(=O)N1CCC(c2ccc(C(=O)NC(=N)N)cc2C(F)(F)F)CC1
4. N#Cc1ccc(C(=O)N2CCC(c3ccc(C(=O)NC(=N)N)cc3C(F)(F)F)CC2)cc1
5. N=C(N)NC(=O)c1ccc(C2CCN(C(=O)c3ccc(C(N)=O)cc3)CC2)c(C(F)(F)F)c1
6. Cn1ccnc1C(=O)N1CCC(c2ccc(C(=O)NC(=N)N)cc2C(F)(F)F)CC1
7. CC(=O)N1CCC(c2ccc(C(=O)NC(=N)N)cc2C(F)(F)F)CC1

1. 0.46
2. < 0.06
3. < 0.056
4. 0.2
5. < 0.056
6. 0.12
7. 0.11

---

# Tested Target: Sodium/hydrogen exchanger 1 (Homo sapiens)
# Sequence (P19634 whole entry): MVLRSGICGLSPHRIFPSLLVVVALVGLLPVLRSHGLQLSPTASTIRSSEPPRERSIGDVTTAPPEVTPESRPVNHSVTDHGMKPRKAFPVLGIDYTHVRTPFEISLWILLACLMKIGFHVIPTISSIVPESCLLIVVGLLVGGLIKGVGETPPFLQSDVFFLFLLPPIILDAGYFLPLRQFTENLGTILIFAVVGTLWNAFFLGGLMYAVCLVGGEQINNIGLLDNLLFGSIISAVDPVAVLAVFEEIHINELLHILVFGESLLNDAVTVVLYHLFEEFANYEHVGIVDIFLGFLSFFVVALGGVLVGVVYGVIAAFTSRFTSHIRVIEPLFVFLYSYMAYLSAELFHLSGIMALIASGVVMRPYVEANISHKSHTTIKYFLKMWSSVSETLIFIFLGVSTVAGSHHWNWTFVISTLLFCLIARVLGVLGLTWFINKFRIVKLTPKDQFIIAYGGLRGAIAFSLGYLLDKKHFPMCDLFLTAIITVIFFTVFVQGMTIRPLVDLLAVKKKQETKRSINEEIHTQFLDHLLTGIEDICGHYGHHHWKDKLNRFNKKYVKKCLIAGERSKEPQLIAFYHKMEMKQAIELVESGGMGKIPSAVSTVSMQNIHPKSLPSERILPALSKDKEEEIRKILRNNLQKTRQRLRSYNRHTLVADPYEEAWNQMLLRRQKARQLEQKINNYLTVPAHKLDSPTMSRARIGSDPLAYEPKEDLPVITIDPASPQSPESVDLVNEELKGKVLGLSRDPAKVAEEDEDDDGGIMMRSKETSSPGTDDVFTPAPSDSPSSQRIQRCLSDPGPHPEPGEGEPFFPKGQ
# Test Method Notes: Inhibition of NHE1 in human HT-29 cells assessed as intracellular pH change after 30 mins
Would you mind telling me the reported pIC50 of each entry?
One number for each entry, as −log10 of the molar value.

Look over these answered cases.
Endpoint output: pIC50 of CN(C)C(=O)c1ccc(C(=O)N2CCC(c3ccc(C(=O)NC(=N)N)cc3C(F)(F)F)CC2)cc1 . Value?
7.30

Endpoint output: pIC50 of N=C(N)NC(=O)c1ccc(C2CCN(C(=O)c3ccccc3)CC2)c(C(F)(F)F)c1 . Value?
7.17

Endpoint output: pIC50 of Cn1cncc1C(=O)N1CCC(c2ccc(C(=O)NC(=N)N)cc2C(F)(F)F)CC1 . Value?
7.74

Endpoint output: pIC50 of N=C(N)NC(=O)c1ccc(C2CCN(C(=O)c3ccccn3)CC2)c(C(F)(F)F)c1 . Value?
7.74

Attention now turns to another entry.
Endpoint output: pIC50 of COc1ccc(C(=O)N2CCC(c3ccc(C(=O)NC(=N)N)cc3C(F)(F)F)CC2)cc1 . Value?
6.88
